- EXPERIMENT_DESCRIPTION: Phase 1 single dose escalation pharmacokinetics
- CONDITION_SUMMARY: male, human, plasma, po, 10 mg, AUC0-24, healthy males, single oral 10 mg, mean
METRIC_NAME: AUC(0-t) (ng·h/mL)

                                   molecule  metric_name  value_observed
0  O=S1(=O)c2ccc(F)cc2Oc2cc(OCC(F)(F)F)ccc21 [CX157]     AUC(0-t)              63

###

- EXPERIMENT_DESCRIPTION: Phase 1 single dose escalation pharmacokinetics
- CONDITION_SUMMARY: male, human, plasma, po, 10 mg
METRIC_NAME: half-life (h)

>>> df
                                   molecule  value_observed
0  O=S1(=O)c2ccc(F)cc2Oc2cc(OCC(F)(F)F)ccc21            18.9
